Values were extracted from the supplement of paper PMC10899765.

Measured 5+ nucleoli phenotype percent effect, listed per entry.
system: MCF10A; test: 5+ nucleoli phenotype percent effect (relative to siNT 0% and siKIF11 100%); higher = more cells with five or more nucleoli; settings: 20 nM; 72 h
endpoint: 5+ nucleoli phenotype percent effect (%)

{"columns": ["sequenceData", "unitSymbol", "observedResult"],
 "data": [
  ["UAUGGAGUGGACUUUCAGCUGGC [hsa-miR-6514-5p]", "%", 38.3],
  ["CACACAAGUGGCCCCCAACACU [hsa-miR-4731-3p]", "%", -12.1],
  ["CAAAAACCGCAAUUACUUUUGCA [hsa-miR-548z]", "%", -14.9],
  ["AUAUACCUGUUCGGUCUCUUUA [hsa-miR-3144-3p]", "%", -12.6],
  ["UUGGGAGGGAAGACAGCUGGAGA [hsa-miR-6780a-5p]", "%", -30.2],
  ["AUCGCUUUACCAUUCAUGUU [hsa-miR-4790-5p]", "%", -9.48],
  ["AAAAGUAAUUGUGGAUUUUGCU [hsa-miR-548ab]", "%", 30.5],
  ["UGGUGGGUGGGGAGGAGAAGUGC [hsa-miR-6769b-5p]", "%", -22.4],
  ["UGCUAGUCUGGACUGAUAUGGU [hsa-miR-8086]", "%", -8.54],
  ["CCACUUGGAUCUGAAGGCUGCCC [hsa-miR-3614-5p]", "%", -32.4],
  ["AGCAAAAUAAGCAAAUGGAAAA [hsa-miR-1468-3p]", "%", 29.6]
]}
